Kindly supply the reported pIC50 values for the records listed here.
Target: Cathepsin S (Homo sapiens, UniProt P25774)
Sequence (P25774 whole entry): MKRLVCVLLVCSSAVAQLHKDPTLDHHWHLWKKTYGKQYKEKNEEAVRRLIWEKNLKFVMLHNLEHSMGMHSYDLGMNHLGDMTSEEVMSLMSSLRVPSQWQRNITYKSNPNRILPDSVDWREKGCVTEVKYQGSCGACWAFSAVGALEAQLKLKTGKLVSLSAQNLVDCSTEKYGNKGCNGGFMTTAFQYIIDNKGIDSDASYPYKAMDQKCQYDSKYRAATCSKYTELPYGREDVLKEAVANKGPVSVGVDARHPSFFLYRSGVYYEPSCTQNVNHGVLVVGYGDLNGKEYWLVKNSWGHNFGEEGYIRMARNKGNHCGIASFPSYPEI
Assay: Inhibition of cathepsin S in human JY cells assessed as inhibition of invariant chain degradation
Type: cell-based
A value of pIC50 is the negative decimal logarithm of a concentration given in moles per litre.

Ask: Hello, please tell me recorded pIC50 for this one: `CN1CCN(CCSc2cc(-c3nn(CCCN4CCC(N5CCCC5=O)CC4)c4c3CN(S(C)(=O)=O)CC4)ccc2C(F)(F)F)CC1`
Result: 6.89

Ask: Answer with reported pIC50 of `CC1CCN(CCSc2cc(-c3nn(CCCN4CCC(N5CCCC5=O)CC4)c4c3CN(S(C)(=O)=O)CC4)ccc2C(F)(F)F)CC1`
Result: 6.09

Ask: Return pIC50 for the following molecule: `CS(=O)(=O)N1CCc2c(c(-c3ccc(C(F)(F)F)c(SCCN4CCCCC4)c3)nn2CCCN2CCCC2)C1`
Result: 6.33

Ask: Give pIC50 for the following molecule: CS(=O)(=O)N1CCc2c(c(-c3ccc(C(F)(F)F)c(SCCN4CCC5CCCCC5C4)c3)nn2CCCN2CCC(N3CCCC3=O)CC2)C1 (configuration not stated)
Result: 6.34

Ask: Return the recorded pIC50 value; entry: `CS(=O)(=O)N1CCc2c(c(-c3ccc(C(F)(F)F)c(SCCN4CCC(O)CC4)c3)nn2CCCN2CCC(N3CCCC3=O)CC2)C1`
Result: 6.46

Ask: Provide only the value of recorded pIC50 for `CS(=O)(=O)N1CCc2c(c(-c3ccc(C(F)(F)F)c(SCCN4CCCCC4)c3)nn2CCCN2CCOCC2)C1`
Result: 5.45

Ask: Report pIC50, nothing else, for this molecule: `CC(C)(C)C1CCN(CCSc2cc(-c3nn(CCCN4CCC(N5CCCC5=O)CC4)c4c3CN(S(C)(=O)=O)CC4)ccc2C(F)(F)F)CC1`
Result: 6.48

---

Target: Cathepsin S (Homo sapiens, UniProt P25774)
Experiment: Inhibition of cathepsin S in human JY cells assessed as inhibition of invariant chain degradation
Type: cell-based
Recorded metric: pIC50
Reminder that pIC50 means the negative base-10 logarithm of the concentration expressed in mol/L.

Ask: Provide one value: measured pIC50 of `CS(=O)(=O)N1CCc2c(c(-c3ccc(C(F)(F)F)c(SCCNCc4ccccc4)c3)nn2CCCN2CCC(N3CCCC3=O)CC2)C1`
Result: 6.34

Ask: Please report pIC50 for the following compound: `CS(=O)(=O)N1CCc2c(c(-c3ccc(C(F)(F)F)c(SCCN4CCC(c5ccccc5)CC4)c3)nn2CCCN2CCC(N3CCCC3=O)CC2)C1`
Result: 6.02

Ask: Supply measured pIC50 of `CS(=O)(=O)N1CCc2c(c(-c3ccc(C(F)(F)F)c(SCCN4CCCC4)c3)nn2CCCN2CCC(N3CCCC3=O)CC2)C1` in your reply.
Result: 7.10

Ask: Input `CS(=O)(=O)N1CCc2c(c(-c3ccc(C(F)(F)F)c(SCCN4CCOCC4)c3)nn2CCCN2CCC(N3CCCC3=O)CC2)C1` , output reported pIC50.
Result: 6.17

Ask: Return the recorded pIC50 value; entry: `CS(=O)(=O)N1CCc2c(c(-c3ccc(C(F)(F)F)c(SCCN4CCCCC4)c3)nn2CCCN2CCC(N3CCCC3)CC2)C1`
Result: 6.49
